# Test system: PDE 4
# protocol.description: PDE 4 Enzyme Inhibition (SPA)
# Type: biochemical
# applied.conditions: 10^-6 M; enzyme from human PMNs; cAMP 1 μM
# Protocol: PDE 4 Enzyme Inhibition Study a) Purification of Human Polymorphonucleate Leukocytes The polymorphonucleate leukocytes (PMNs) were isolated from peripheral blood of healthy volunteers according to what described by Boyum A., Scand. […] The resulting PDE 4 enzyme was stored at -20° C. in the presence of ethylenglycole (30%) v/v) till the use c) PDE 4 Enzyme Inhibition The enzyme activity was evaluated with an Amersham kit based on the SPA technique (Scintillation Proximity Assay). […]
Structures can show the parent of a compound that is named as a salt.
quantity.kind: PDE 4 % inhibition (%)
Write the value in % as a bare number.

Worked examples follow.
- compound: "COc1cc2c(cc1OC1CCCC1)C(Cc1c(Cl)cncc1Cl)=NCC2.Cl [Compound 2]"
  tgt: "PDE 4"
  value: 54
- compound: "COc1cc2[nH]cc(-c3c(Cl)cncc3Cl)c(=O)c2cc1OC1CCCC1 [Compound 10]"
  tgt: "PDE 4"
  value: 73
- compound: "COc1cc2c(cc1OC1CCCC1)C(=O)C(c1c(Cl)cncc1Cl)CN2 (stereo not shown) [Compound 12]"
  tgt: "PDE 4"
  value: 94
- compound: "COc1ccc2c(c1OCCCCCc1ccccc1)CCN=C2Cc1c(Cl)cncc1Cl.Cl [Compound 3]"
  tgt: "PDE 4"
  value: 93
- compound: "COc1ccc2c(c1OC1CCCC1)CCN=C2Cc1c(Cl)cncc1Cl [Compound 1, Hydrochloride]"
  tgt: "PDE 4"
  value: 79
- compound: "COC(=O)c1c(Cc2c(Cl)cncc2Cl)c2ccc(OC)c(OC3CCCC3)c2[nH]c1=O [Compound 8]"
  tgt: "PDE 4"
  value: 60

Next item in the queue.
Tell me the measured PDE 4 % inhibition of COc1ccc2c(c1OCCCCCc1ccccc1)CCNC2Cc1c(Cl)cncc1Cl.Cl.Cl (stereo not shown) [Compound 4] , please.
54

====

# tgt: PDE 4
# protocol.description: PDE 4 Enzyme Inhibition (SPA)
# applied.conditions: enzyme from human PMNs; cAMP 1 μM; 40 minutes at 30° C.
Structures can show the parent of a compound that is named as a salt.
quantity.kind: pIC50
// pIC50: -log10(molar conc.)

- compound: "COc1cc2c(cc1OC1CCCC1)C(Cc1c(Cl)cncc1Cl)=NCC2.Cl [Compound 2, Hydrochloride]"
  tgt: "PDE 4"
  quantity.kind: "pIC50"
  value: 5.98

Tell me the measured pIC50 of COc1cc2c(cc1OC1CCCC1)C(=O)C(c1c(Cl)cncc1Cl)CN2 (stereo not shown) , please.
7.00

Tell me the measured pIC50 of COc1ccc2c(c1OCCCCCc1ccccc1)CCN=C2Cc1c(Cl)cncc1Cl.Cl [Compound 3, Hydrochloride] , please.
7.06

Tell me the measured pIC50 of COc1ccc2c(c1OC1CCCC1)CCN=C2Cc1c(Cl)cncc1Cl [Compound 1, Hydrochloride] , please.
6.83
